Recorded values, source ChEMBL document CHEMBL1961873.

Measured inhibition, listed per entry.
biological target: MAP kinase-activated protein kinase 2 (Homo sapiens) (UniProt P49137); conditions: at 0.1 µM;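 also: figures are mean inhibition values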
Sequence (P49137 whole entry, looked up): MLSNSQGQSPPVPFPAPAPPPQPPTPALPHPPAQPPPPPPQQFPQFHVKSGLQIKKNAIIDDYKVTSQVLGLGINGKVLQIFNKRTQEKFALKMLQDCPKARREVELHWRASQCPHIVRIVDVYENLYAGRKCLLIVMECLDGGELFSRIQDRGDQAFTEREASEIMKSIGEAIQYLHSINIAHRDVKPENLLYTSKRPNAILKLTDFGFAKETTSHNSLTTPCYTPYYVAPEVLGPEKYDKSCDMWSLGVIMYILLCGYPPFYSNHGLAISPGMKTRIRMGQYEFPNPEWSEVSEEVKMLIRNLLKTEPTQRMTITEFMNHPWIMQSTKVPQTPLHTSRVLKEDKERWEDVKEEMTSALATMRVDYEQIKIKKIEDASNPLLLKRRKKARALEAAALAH

| smiles entry | display unit | inhibition |
| --- | --- | --- |
| CCNC(=O)O[C@H]1CN[C@H](C#Cc2cc3ncnc(Nc4ccc(OCc5cccc(F)c5)c(Cl)c4)c3s2)C1 | % | 1.55 |
| COc1cccc(-n2ncc3c(N/N=C/c4ccc(F)cc4)ncnc32)c1 | % | 1.96 |
| Fc1ccc(-c2cc(-c3c[nH]nc3-c3ccccn3)ccn2)cc1 | % | 2.53 |
| CCN(CC)S(=O)(=O)c1ccc(OC)c(Nc2ncc(-c3ccccc3)o2)c1 | % | 2.65 |
| CS(=O)(=O)CCNCc1coc(-c2ccc3ncnc(Nc4ccc(OCc5ccccc5)cc4)c3c2)c1 | % | 1.33 |
| CNC(=O)c1cc(-c2ccc(F)cc2)cc(-c2ccc(S(=O)(=O)N3CCCC3)cc2)c1N | % | 4.47 |
| NS(=O)(=O)c1ccc(N/N=C2\C(=O)Nc3ccc4ncccc4c32)cc1 | % | 0.89 |
| CS(=O)(=O)CCNCc1ccc(-c2ccc3ncnc(Nc4ccc(OCc5ccccc5)c(C(F)(F)F)c4)c3c2)o1 | % | 4.99 |
| COc1ccc(-c2oc3ncnc(N)c3c2-c2ccc(NC(=O)Nc3cc(C(F)(F)F)ccc3F)cc2)cc1 | % | 2.26 |
| CN(C)CCOc1ccc(-c2nc(-c3ccncc3)c(-c3ccc4c(c3)CC/C4=N\O)[nH]2)cc1 | % | 1.68 |
| CC(C)COC(=O)c1ccc2c(c1)/C(=C/Nc1ccc(S(N)(=O)=O)cc1)C(=O)N2 | % | -0.97 |
| CCn1c(-c2nonc2N)nc2c(C#CC(C)(C)O)nc(OC[C@H](N)c3ccccc3)cc21 | % | 0.63 |
| O=S(=O)(CCNCc1ccc(-c2ccc3ncnc(Nc4ccc(OCc5cccc(F)c5)c(Cl)c4)c3c2)o1)c1ccccc1 | % | 2.31 |
| COc1ccc(-c2cc3c(N)ncnc3o2)cc1 | % | -1.21 |
| COC(=O)Nc1nc2ccc(S(=O)(=O)c3ccc(NC(=O)Nc4cc(C(F)(F)F)ccc4F)cc3)cc2[nH]1 | % | 0.59 |
| CCn1c(-c2nonc2N)nc2ccccc21 | % | 0.79 |
| NC(=O)c1sc(-n2cnc3ccc(C(F)(F)F)cc32)cc1OCc1ccccc1Br | % | 1.86 |
| CCn1cc(-c2ccnc3[nH]ccc23)c(-c2cccc(NC(=O)Nc3ccc(OCc4ccccc4)cc3)c2)n1 | % | -0.39 |
| Nc1ncc(-c2cccc(S(N)(=O)=O)c2)c2scc(-c3ccc(F)c(Cl)c3)c12 | % | 1.76 |
| CC(=O)NCc1cccc(C#Cc2cncnc2Nc2ccc(OCc3cccc(F)c3)c(Cl)c2)c1 | % | -2.58 |
| COc1ccc2[nH]c3c4[nH]c5ccc(OC)cc5c4c4c(c3c2c1)C(=O)NC4=O | % | 2.61 |
| CCc1nn2ncccc2c1-c1ccnc(NC2CC2)n1 | % | 1.44 |
| COc1ccc(CNC(=O)c2ccc(-c3cc(-c4nnc(C)o4)ccc3C)cc2)cc1 | % | 4.31 |
| FC(F)(F)c1cccc(-c2nn3ncccc3c2-c2ccnc(Nc3ccc4c(c3)OCCO4)n2)c1 | % | 0.54 |
| COc1cc2c(cc1Nc1nc(Nc3ccsc3C(N)=O)c3cc[nH]c3n1)N(C(=O)CN(C)C)CCC2(C)C | % | -0.48 |
| COc1cc(/C=N/Nc2ncnc3[nH]ncc23)ccc1O | % | 2.01 |
| COc1ccc(-c2cc(-c3c[nH]nc3-c3ccccn3)ccn2)cc1 | % | 2.82 |
| Fc1ccc(-c2nn3ncccc3c2-c2ccnc(Nc3ccc4c(c3)OCCO4)n2)cc1 | % | 1.56 |
| CC(=O)Nc1cccc(C#Cc2cncnc2Nc2ccc(OCc3cccc(F)c3)c(Cl)c2)c1 | % | -2.08 |
